B1: Protein S100-G, residues 1 to 79; numbered along this chain, P02633 (parent)
chain: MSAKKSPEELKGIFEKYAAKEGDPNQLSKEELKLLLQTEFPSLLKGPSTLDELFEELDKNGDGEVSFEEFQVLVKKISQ

# Variants of: B1
# Assay Notes: abundance fitness (aPCA) (normalised: wild type 0, dead -1); higher = more abundant; growth selection in yeast, the domain comes from the species named
# Assay Setup: Bos taurus
The entries below come with measured abundance fitness values attached.

{"Variant Notation": "S66A", "abundance fitness": -0.009}
{"Variant Notation": "L34A", "abundance fitness": 0.066}
{"Variant Notation": "L32V", "abundance fitness": -0.067}
{"Variant Notation": "F40A", "abundance fitness": -0.189}
{"Variant Notation": "L10K", "abundance fitness": -0.401}
{"Variant Notation": "D23N", "abundance fitness": -0.013}
{"Variant Notation": "E69A", "abundance fitness": -0.04}
{"Variant Notation": "L32I", "abundance fitness": 0.067}
{"Variant Notation": "L34N", "abundance fitness": 0.041}
{"Variant Notation": "Q26Y", "abundance fitness": 0.021}
{"Variant Notation": "K11C", "abundance fitness": -0.202}
{"Variant Notation": "K33G", "abundance fitness": 0.033}
{"Variant Notation": "E68C", "abundance fitness": -0.073}
{"Variant Notation": "K4Y", "abundance fitness": 0.01}
{"Variant Notation": "L44C", "abundance fitness": 0.002}
{"Variant Notation": "Q37E", "abundance fitness": 0.019}
{"Variant Notation": "P24L", "abundance fitness": -0.113}
{"Variant Notation": "L35I", "abundance fitness": 0.016}
{"Variant Notation": "L27R", "abundance fitness": -0.673}
{"Variant Notation": "Y17H", "abundance fitness": -0.067}
{"Variant Notation": "L10S", "abundance fitness": -0.221}
{"Variant Notation": "V74Q", "abundance fitness": 0.102}
{"Variant Notation": "K5S", "abundance fitness": -0.03}
{"Variant Notation": "M1R", "abundance fitness": -0.631}
{"Variant Notation": "S48F", "abundance fitness": -0.062}
{"Variant Notation": "K29D", "abundance fitness": -0.007}
{"Variant Notation": "F70Q", "abundance fitness": -1.01}
{"Variant Notation": "K20Q", "abundance fitness": 0.04}
{"Variant Notation": "V65I", "abundance fitness": 0.007}
{"Variant Notation": "E31R", "abundance fitness": -0.064}
{"Variant Notation": "T38A", "abundance fitness": 0.027}
{"Variant Notation": "G22N", "abundance fitness": -0.147}
{"Variant Notation": "N60Q", "abundance fitness": -0.043}
{"Variant Notation": "K75H", "abundance fitness": 0.01}
{"Variant Notation": "E68R", "abundance fitness": -0.046}
{"Variant Notation": "T49K", "abundance fitness": -0.103}
{"Variant Notation": "V74N", "abundance fitness": -0.001}
{"Variant Notation": "L73Q", "abundance fitness": -0.28}
{"Variant Notation": "S66Q", "abundance fitness": -0.101}
{"Variant Notation": "G22E", "abundance fitness": -0.17}
{"Variant Notation": "L32F", "abundance fitness": -0.048}
{"Variant Notation": "Q37H", "abundance fitness": -0.047}
